- Tested on: Echinochloa crus-galli
- ASSAY_SUMMARY: Example B2 herbicidal action, post-emergence, pots in glasshouse, evaluated after 13 days (10=total damage to plant; 0=no damage to plant)
- Assay type: in vivo
- MEASUREMENT_PARAMETERS: rate 1000 g/ha
Threshold check on ECHCG damage score (10=total damage to plant; 0=no damage to plant): at or above 7 gives 1 (yes), strictly below gives 0 (no).

>>> label("CCc1cc(C)cc(CC)c1-c1c(OC(=O)C(C)C)c2nccnc2n(CC(F)F)c1=O")
"1 (yes)"
>>> label("COc1ccc(Br)cc1-c1c(OC(=O)C(C)(C)C)c2nccnc2n(CC(F)F)c1=O")
"0 (no)"
>>> label("CC(C)(C)C(=O)Oc1c(-c2c(Cl)cc(OC(F)(F)F)cc2Cl)c(=O)n(CC(F)F)c2nccnc12")
"1 (yes)"
>>> label("CC(C)C(=O)Oc1c(-c2c(F)ccc(F)c2Cl)c(=O)n(CC=C(Cl)Cl)c2nccnc12")
"0 (no)"
>>> label("O=c1c(-c2c(Cl)cccc2C(F)(F)F)c(O)c2nccnc2n1CC(F)F")
"1 (yes)"
>>> label("CC(C)(C)C(=O)Oc1c(-c2cc(C(F)(F)F)ccc2C(F)(F)F)c(=O)n(CC(F)F)c2nccnc12")
"1 (yes)"
>>> label("O=C1c2nccnc2N(CC=C(Cl)Cl)C(=O)C1c1c(F)ccc(F)c1Cl (stereo not drawn)")
"0 (no)"
>>> label("CC(C)(C)C(=O)Oc1c(-c2cc(F)c(F)cc2Cl)c(=O)n(CC(F)F)c2nccnc12")
"0 (no)"
>>> label("COc1ccc(OC(F)(F)F)cc1-c1c(O)c2nccnc2n(CC(F)F)c1=O")
"1 (yes)"
>>> label("CC(C)(C)C(=O)Oc1c(-c2c(F)ccc(Cl)c2Cl)c(=O)n(CC(F)F)c2nccnc12")
"0 (no)"
>>> label("CCc1cc(C)cc(CC)c1-c1c(O)c2nccnc2n(CC(F)F)c1=O")
"1 (yes)"
>>> label("CC(C)(C)C(=O)Oc1c(-c2cc(Cl)ccc2Cl)c(=O)n(CC(F)F)c2nccnc12")
"0 (no)"
>>> label("O=C1c2nccnc2N(CC(F)(F)F)C(=O)C1c1c(F)ccc(F)c1Cl (stereo not drawn) [D1]")
"0 (no)"
>>> label("COc1cccc(-c2c(OC(=O)C(C)(C)C)c3nccnc3n(CC(F)F)c2=O)c1OC")
"0 (no)"
>>> label("O=c1c(-c2c(F)ccc([N+](=O)[O-])c2Cl)c(O)c2nccnc2n1CC(F)F")
"1 (yes)"
